system: ammonia lateralization threshold; experiment: Panel evaluation of the lateralization threshold (LT) of ammonia alone and in combination with a PRM; assay type: in vivo, panellists; set-up: unit not given here; details: Table 4; ammonia stimulus combined with PRM stimulus

{"molecule": "CCC(=O)OCC(C)(C)O[C@@H](C)[C@@H]1CCCC(C)(C)C1 [Helvetolide ®]", "LT of ammonia Panellist 1 Cond II": 11.1}
{"molecule": "CCOC(=O)C1=C(C)C=CCC1(C)C", "LT of ammonia Panellist 1 Cond II": 0.6}
{"molecule": "C=CCOC(=O)COC1CCCCC1 [Cyclogalbanate, Allyl (cyclohexyloxy)-acetate]", "LT of ammonia Panellist 1 Cond II": 2.0}
{"molecule": "CC(C)CCCC(C)CCO (stereo not drawn)", "LT of ammonia Panellist 1 Cond II": 6.3}
{"molecule": "CC(C)[C@H]1CC[C@@H](CO)CC1 [Mayol ®, cis-7-P-menthanol]", "LT of ammonia Panellist 1 Cond II": 0.6}
{"molecule": "CCCOC(=O)[C@H](C)OC(C)(C)CC [Sclareolate ®]", "LT of ammonia Panellist 1 Cond II": 1.1}
{"molecule": "C=C(CC(C)CO)C1CC=C(C)C1(C)C (stereo not drawn)", "LT of ammonia Panellist 1 Cond II": 3.5}
{"molecule": "C[C@@H]1CC[C@H]2[C@H](C)C(=O)O[C@@H]2C1", "LT of ammonia Panellist 1 Cond II": 19.6}
{"molecule": "CCC1CC(C)(C)CCC1=O (stereo not drawn)", "LT of ammonia Panellist 1 Cond II": 3.5}
{"molecule": "CCOC(=O)C(=O)C(C)CC (stereo not drawn) [Ethyl 3-methyl-2-oxopentanoate]", "LT of ammonia Panellist 1 Cond II": 0.6}
{"molecule": "CC(=O)OCCC1CCCCC1 [2-cyclohexylethyl acetate]", "LT of ammonia Panellist 1 Cond II": 2.0}
{"molecule": "CCCCC(CC)CCC(C)O (stereo not drawn)", "LT of ammonia Panellist 1 Cond II": 19.6}

---

Tested on: ammonia lateralization threshold
Test: Panel evaluation of the lateralization threshold (LT) of ammonia alone and in combination with a PRM
Assay type: in vivo, panellists
Conditions: Table 3; ammonia stimulus combined with PRM stimulus (concentration of Table 2 in propylene glycol)
Procedure: An ammonia stimulus test range was prepared. […] A stimulus was also prepared for each PRM which was intended to be combined with ammonia stimuli. […] If the rating created any sort of reasonable curve, the equation of the curve was determined and solved for 0 to arrive at the PRM assessment level. […] In the first circumstance, threshold values were then calculated by averaging the last four reversals. […] In the third circumstance, the LT could not be calculated. […]
Listed here are compounds together with their documented Ammonia LT Panellist 2 Cond II.
readout-label: Ammonia LT Panellist 2 Cond II (ppm)

{"compound": "O=Cc1ccc2c(c1)OCO2 [Heliotropine ®, 1,3-Benzodioxole-5-carbaldehyde]", "obs-value": 22.9}
{"compound": "CCOC(=O)C1CCC(C(=O)OCC)CC1 (centres unmarked) [Fructalate ®, Diethyl 1,4-cyclohexane dicarboxylate]", "obs-value": 188.3}
{"compound": "COc1cc(C)ccc1O [Creosol H]", "obs-value": 7.3}
{"compound": "C=CCOC(=O)CCCCCC [Allyl heptanoate]", "obs-value": 225.5}
{"compound": "C=C(C)C1CC=C(C)C(=O)C1 (centres unmarked) [Carvone]", "obs-value": 225.5}
{"compound": "CCCC(=O)OCC(C)C [Isopropylmethyl butyrate]", "obs-value": 188.3}
{"compound": "CC(C)=CCC/C(C)=C/CO [Geraniol]", "obs-value": 60.0}
{"compound": "CC/C=C\\CCO [(Z)-3-hexen-1-ol]", "obs-value": 225.5}
{"compound": "O=C1CCCCCCCCCCCCCCO1 [Exaltolide ®, Pentadecanolide]", "obs-value": 71.9}
{"compound": "CCCc1ccc(OC)cc1 [Dihydroestragole]", "obs-value": 71.9}
{"compound": "CC(C=O)Cc1ccc(C(C)(C)C)cc1 (centres unmarked) [Lilial ®, 3-(4-Tert-butylphenyl)-2-methylpropanal]", "obs-value": 7.3}
{"compound": "CCCCCCOC(=O)c1ccccc1O [Hexyl salicylate]", "obs-value": 188.3}
{"compound": "CC(OC=O)C1CCCC(C)(C)C1 (centres unmarked) [Aphermate]", "obs-value": 71.9}
{"compound": "CCC/C(C)=C\\COC(C)=O [Aladinate ®, (Z)-3-methyl-2-hexenyl acetate]", "obs-value": 71.9}
{"compound": "CCCCOC(C)=O [Butyl acetate]", "obs-value": 225.5}
{"compound": "CC1C(=O)O[C@H]2C[C@@H](C)CC[C@H]12 (mixture of isomers) [Koumalactone ®]", "obs-value": 71.9}
{"compound": "CCCC(C)C(=O)OCC (centres unmarked) [Applinate ®, Ethyl 2-methyl-pentanoate]", "obs-value": 55.1}
{"compound": "Cc1ccc2c(c1)CC(C)(CO)C2 (centres unmarked) [Lilyflore ®, 2,5-Dimethyl-2-indanmethanol]", "obs-value": 176.5}
{"compound": "C=CC(C)(O)CCC=C(C)C (centres unmarked) [Linalool]", "obs-value": 22.9}
{"compound": "CC1=C(C=O)C(C)(C)CC=C1 [Safranal]", "obs-value": "2.2E−03"}

All figures here come from patent US20130287721A1.
